Sourced from patent US9504747B2

# Measurement notes: Particle size of the lipid nanoparticle (dynamic light scattering, Malvern Zetasizer)
# Assay type: physicochemical
# Test settings: Table 4; FVII siRNA LNP; Chol/DSPC/stealth lipid S010, molar ratio 45/44/9/2; Z-average
# Source text: The lipid nanoparticles have a size of about 1 to about 2,500 nm, about 1 to about 1,500 nm, about 1 to about 1,000 nm, in a sub-embodiment about 50 to about 600 nm, in a sub-embodiment about 50 to about 400 nm, in a sub-embodiment about 50 to about 250 nm, and in a sub-embodiment about 50 to about 150 nm. Unless indicated otherwise, all sizes referred to herein are the average sizes (diameters) of the fully formed nanoparticle, as measured by dynamic light scattering on a Malvern Zetasizer. […]
Measured Size (nm) of individual entries
Report only the number, with the unit nm understood.

For orientation, consider the following solved cases.
CCCCCCCC(=O)OC[C@H](CCOc1cc(CN(C)C)cc(OCC[C@@H](COC(=O)CCCCCCC)OC(=O)CCCCCCC)c1)OC(=O)CCCCCCC; 121.5
CCCCCCCCCC(=O)OCCCCCCOc1cc(CN(C)C)cc(OCCCCCCOC(=O)CCCCCCCCC)c1; 125.9
CCCCCCCC(=O)OCCCCCCCCCC(=O)OCc1cc(COC(=O)CCCCCCCCCOC(=O)CCCCCCC)cc(CN(C)C)c1; 120.3
CCC/C=C\CCCCCCC(=O)OCCCCCCOc1cc(CN(C)C)cc(OCCCCCCOC(=O)CCCCCC/C=C\CCC)c1; 126
CCCCCCCC(=O)OCCCCCCCCOc1cc(CN(C)C)cc(OCCCCCCCCOC(=O)CCCCCCC)c1; 120

Give the value of Size (nm) reported for the following: CCCCCCCC(=O)OCC(COC(=O)CCCCCCC)COc1cc(CN(C)C)cc(OCC(COC(=O)CCCCCCC)COC(=O)CCCCCCC)c1
161.9

Give the value of Size (nm) reported for the following: CCCCCCCCCC(=O)OCCCCCCCCOc1cc(CN(C)C)cc(OCCCCCCCCOC(=O)CCCCCCCCC)c1
145.4

----------
# Measurement notes: Particle size of the lipid nanoparticle (dynamic light scattering, Malvern Zetasizer)
# Format: physicochemical
# Test settings: Table 4; FVII siRNA LNP; Chol/DSPC/stealth lipid S010, molar ratio 45/44/9/2; Z-average
Kind request: treat 100 nm as inclusive, so Size (nm) at 100 nm or higher is fulfilled, anything lower is not fulfilled.

Consider the following illustrative entries.
CCCCC/C=C\C/C=C\CCCCCCCC(=O)OCCCOc1cc(CN(C)C)cc(OCCCOC(=O)CCCCCCC/C=C\C/C=C\CCCCC)c1 [Example 39]; fulfilled
CCCCC/C=C\C/C=C\CCCCCCCC(=O)OCCCCOc1cc(CN(C)C)cc(OCCCCOC(=O)CCCCCCC/C=C\C/C=C\CCCCC)c1 [Example 38]; fulfilled
CCCCCCCC(=O)OC[C@@H](CCOc1cc(CN(C)C)cc(OCC[C@@H](COC(=O)CCCCCCC)OC(=O)CCCCCCC)c1)OC(=O)CCCCCCC [Example 92]; fulfilled
CCCCCCCC(=O)OCCCCCCCCCCOc1cc(CN(CC)CC)cc(OCCCCCCCCCCOC(=O)CCCCCCC)c1OCCCCCCCCCCOC(=O)CCCCCCC [Example 100]; fulfilled
CCCCC/C=C\C/C=C\CCCCCCCC(=O)OCCCCOc1cc(CN(CC)CC)cc(OCCCCOC(=O)CCCCCCC/C=C\C/C=C\CCCCC)c1C [Example 55]; fulfilled
CCCCCCCC(=O)OCCCCCCCC(=O)OCc1cc(COC(=O)CCCCCCCOC(=O)CCCCCCC)cc(CN(C)C)c1 [Example 87]; fulfilled
CCCCCCCC(=O)OCCCCCCCCCCOc1cc(CN(C)C)cc(OCCCCCCCCCCOC(=O)CCCCCCC)c1 [Example 43]; fulfilled
CCCCCC(=O)OCCCCCCCCOc1cc(CN(C)C)cc(OCCCCCCCCOC(=O)CCCCC)c1 [Example 41]; fulfilled

hey, is Size (nm) for this one >= 100 nm? CCCCCCCC(=O)OC[C@@H](CCOc1cc(CN(C)C)cc(OCC[C@H](COC(=O)CCCCCCC)OC(=O)CCCCCCC)c1)OC(=O)CCCCCCC [Example 94]
fulfilled

hey, is Size (nm) for this one >= 100 nm? CCCCC/C=C\C/C=C\CCCCCCCC(=O)OCCCC(=O)OCc1cc(COC(=O)CCCOC(=O)CCCCCCC/C=C\C/C=C\CCCCC)cc(CN(C)C)c1 [Example 82]
fulfilled

----------
Measured PDI of individual entries
# Measurement notes: Polydispersity index (PDI) of the lipid nanoparticle (dynamic light scattering)
# Type: physicochemical
# Test settings: Table 4; FVII siRNA LNP; Chol/DSPC/stealth lipid S010, 45/44/9/2
Reply with just the number.

For orientation, consider the following solved cases.
CCCCC/C=C\C/C=C\CCCCCCCC(=O)OCCCCOc1cc(CN(C)C)cc(OCCCCOC(=O)CCCCCCC/C=C\CCCCCCCC)c1; 0.057
CCCCCCCC(=O)OCCCCCCCCCCOc1cc(CN(CC)CC)cc(OCCCCCCCCCCOC(=O)CCCCCCC)c1OCCCCCCCCCCOC(=O)CCCCCCC; 0.121
CCCCCC(=O)OCCCCCCCCCCOc1cc(CN(C)C)cc(OCCCCCCCCCCOC(=O)CCCCC)c1; 0.077
CCCCC/C=C\C/C=C\CCCCCCCC(=O)OCCCCCCCCOc1cc(CN(C)C)cc(OCCCCCCCCOC(=O)CCCCCCC/C=C\C/C=C\CCCCC)c1; 0.135
CCC/C=C\CCCCCCC(=O)OCCCCCCOc1cc(CN(C)C)cc(OCCCCCCOC(=O)CCCCCC/C=C\CCC)c1; 0.056
CCCCCCCCCCOC(=O)CCCCCCCOc1cc(CN(C)C)cc(OCCCCCCCC(=O)OCCCCCCCCCC)c1; 0.059
CCCCCCCC/C=C\CCCCCCCC(=O)OCCCCOc1cc(CN(C)C)cc(OCCCCOC(=O)CCCCCCC/C=C\CCCCCCCC)c1; 0.098
CCCCCCCC(=O)OC[C@@H](CCOc1cc(CN(C)C)cc(OCC[C@H](COC(=O)CCCCCCC)OC(=O)CCCCCCC)c1)OC(=O)CCCCCCC; 0.073

Give the value of PDI reported for the following: CCCCCCCC(=O)OCC(CCOc1cc(CN(C)C)cc(OCCC(COC(=O)CCCCCCC)OC(=O)CCCCCCC)c1)OC(=O)CCCCCCC (centres unmarked)
0.053

Give the value of PDI reported for the following: CCCCC/C=C\C/C=C\CCCCCCCC(=O)OCc1cc(COC(=O)CCCCCCC/C=C\C/C=C\CCCCC)cc(COC(=O)OCCCN(CC)CC)c1
0.053

Give the value of PDI reported for the following: CCCCCCCC(=O)OCC(COC(=O)CCCCCCC)OC(=O)CCC(=O)OCc1cc(COC(=O)CCC(=O)OC(COC(=O)CCCCCCC)COC(=O)CCCCCCC)cc(CN(C)C)c1
0.071

Give the value of PDI reported for the following: CCCCCCCC(=O)OCCCCCCCCCCOc1cc(CN(C)C)cc(OCCCCCCCCCCOC(=O)CCCCCCC)c1
0.066

----------
# Measurement notes: pKa measurement of the cationic lipid (TNS fluorescence vs pH)
# Type: physicochemical
# Test settings: probe TNS (fluorescent probe), Table 4; pKa of the cationic lipid of formula (I)
Measured pKa of individual entries
Reply with just the number.

For orientation, consider the following solved cases.
CCCCCCCC(=O)OCC(CCCCOc1cc(CN(C)C)cc(OCCCCC(COC(=O)CCCCCCC)COC(=O)CCCCCCC)c1)COC(=O)CCCCCCC; 5.66
CCCCC/C=C\C/C=C\CCCCCCCCOC(=O)CCCCOc1cc(CN(C)C)cc(OCCCCC(=O)OCCCCCCCC/C=C\C/C=C\CCCCC)c1; 6.02
CCCCCCCC(=O)OCC(COC(=O)CCCCCCC)OC(=O)CCC(=O)OCc1cc(COC(=O)CCC(=O)OC(COC(=O)CCCCCCC)COC(=O)CCCCCCC)cc(CN(C)C)c1; 6.11
CCCCCCCC(=O)OCCCCCCCC(=O)OCc1cc(COC(=O)CCCCCCCOC(=O)CCCCCCC)cc(CN(C)C)c1; 6.07
CCCCC/C=C\C/C=C\CCCCCCCC(=O)OCCCCOc1cc(CN2CCCC2)cc(OCCCCOC(=O)CCCCCCC/C=C\C/C=C\CCCCC)c1; 6.08

Give the value of pKa reported for the following: CCCCC/C=C\C/C=C\CCCCCCCCOc1cc(CN(C)C)cc(OCCCCCCCC/C=C\C/C=C\CCCCC)c1
5.57

Give the value of pKa reported for the following: CCCCC/C=C\C/C=C\CCCCCCCC(=O)OCCOCCOc1cc(CN(CC)CC)cc(OCCOCCOC(=O)CCCCCCC/C=C\C/C=C\CCCCC)c1
5.9

Give the value of pKa reported for the following: CCCCC/C=C\C/C=C\CCCCCCCC(=O)OCCOc1cc(CN(C)C)cc(OCCOC(=O)CCCCCCC/C=C\C/C=C\CCCCC)c1
6.17
